Data provenance is ChEMBL document CHEMBL5096223.

Measured log10 IC50 at 72 h, listed per entry for reference.
assay: Cytotoxicity against human L02 cells assessed as reduction in cell viability incubated for 72 hrs by MTT assay; assay type: toxicity, cell-based
Reminder: these figures are log10 of reported IC50 at 72 h, in µM before transformation.

Example results:
- smilesStructure: "C=CC(=O)N1CCC(Oc2nc(Nc3ccc(N4CCN(C)CC4)c(F)c3)nc3[nH]ccc23)CC1"
  log10 IC50 at 72 h: 0.28
- smilesStructure: "C=CC(=O)N1CCC(Oc2nc(Nc3ccc(N4CCN(C(C)=O)CC4)cc3OC)nc3[nH]ccc23)CC1"
  log10 IC50 at 72 h: 1.21
- smilesStructure: "C=CC(=O)N1CCC(Oc2nc(Nc3ccc(N4CCN(C)CC4)c(F)c3)nc3ccsc23)CC1"
  log10 IC50 at 72 h: 0.15
- smilesStructure: "C=CC(=O)N1CCC(Oc2nc(Nc3ccc(N4CCOCC4)cc3)nc3ccsc23)CC1"
  log10 IC50 at 72 h: 1.21
- smilesStructure: "C=CC(=O)N1CCC(Oc2nc(Nc3ccc(N(C)CCN(C)C)cc3OC)nc3[nH]ccc23)CC1"
  log10 IC50 at 72 h: 1.28
- smilesStructure: "C=CC(=O)N1CCC(Oc2nc(Nc3cnn(C)c3)nc3[nH]ccc23)CC1"
  log10 IC50 at 72 h: 1.01
- smilesStructure: "C=CC(=O)N1CCC(Oc2nc(Nc3ccc(N4CCN(C)CC4)cc3OC)nc3ccsc23)CC1"
  log10 IC50 at 72 h: 0.29
- smilesStructure: "C=CC(=O)N1CCC(Oc2nc(Nc3ccc(N4CCN(C)CC4)cc3OC)nc3[nH]ccc23)CC1"
  log10 IC50 at 72 h: 1.26

Would you kindly share the measured log10 IC50 at 72 h for C=CC(=O)N1CCC(Oc2nc(Nc3ccc(N4CCOCC4)cc3OC)nc3ccsc23)CC1 ?
1.26

Ok, now C=CC(=O)N1CCC(Oc2nc(Nc3ccc(N4CCN(CCO)CC4)cc3)ncc2Cl)CC1
0.65

Note, next up: C=CC(=O)N1CCC(Oc2nc(Nc3ccc(N4CCN(C)CC4)cc3)nc3[nH]ccc23)CC1
0.80

###

target: Epidermal growth factor receptor (Homo sapiens); test: Inhibition of N-terminal GST-tagged human recombinant wild type EGFR (695 to end residues) expressed in baculovirus-infected Sf9 cells using poly (4:1 Glu,Tyr) peptide as substrate incubated for 60 mins in presence of ATP by ADP-Glo kinase assay
Sequence (P00533 whole entry): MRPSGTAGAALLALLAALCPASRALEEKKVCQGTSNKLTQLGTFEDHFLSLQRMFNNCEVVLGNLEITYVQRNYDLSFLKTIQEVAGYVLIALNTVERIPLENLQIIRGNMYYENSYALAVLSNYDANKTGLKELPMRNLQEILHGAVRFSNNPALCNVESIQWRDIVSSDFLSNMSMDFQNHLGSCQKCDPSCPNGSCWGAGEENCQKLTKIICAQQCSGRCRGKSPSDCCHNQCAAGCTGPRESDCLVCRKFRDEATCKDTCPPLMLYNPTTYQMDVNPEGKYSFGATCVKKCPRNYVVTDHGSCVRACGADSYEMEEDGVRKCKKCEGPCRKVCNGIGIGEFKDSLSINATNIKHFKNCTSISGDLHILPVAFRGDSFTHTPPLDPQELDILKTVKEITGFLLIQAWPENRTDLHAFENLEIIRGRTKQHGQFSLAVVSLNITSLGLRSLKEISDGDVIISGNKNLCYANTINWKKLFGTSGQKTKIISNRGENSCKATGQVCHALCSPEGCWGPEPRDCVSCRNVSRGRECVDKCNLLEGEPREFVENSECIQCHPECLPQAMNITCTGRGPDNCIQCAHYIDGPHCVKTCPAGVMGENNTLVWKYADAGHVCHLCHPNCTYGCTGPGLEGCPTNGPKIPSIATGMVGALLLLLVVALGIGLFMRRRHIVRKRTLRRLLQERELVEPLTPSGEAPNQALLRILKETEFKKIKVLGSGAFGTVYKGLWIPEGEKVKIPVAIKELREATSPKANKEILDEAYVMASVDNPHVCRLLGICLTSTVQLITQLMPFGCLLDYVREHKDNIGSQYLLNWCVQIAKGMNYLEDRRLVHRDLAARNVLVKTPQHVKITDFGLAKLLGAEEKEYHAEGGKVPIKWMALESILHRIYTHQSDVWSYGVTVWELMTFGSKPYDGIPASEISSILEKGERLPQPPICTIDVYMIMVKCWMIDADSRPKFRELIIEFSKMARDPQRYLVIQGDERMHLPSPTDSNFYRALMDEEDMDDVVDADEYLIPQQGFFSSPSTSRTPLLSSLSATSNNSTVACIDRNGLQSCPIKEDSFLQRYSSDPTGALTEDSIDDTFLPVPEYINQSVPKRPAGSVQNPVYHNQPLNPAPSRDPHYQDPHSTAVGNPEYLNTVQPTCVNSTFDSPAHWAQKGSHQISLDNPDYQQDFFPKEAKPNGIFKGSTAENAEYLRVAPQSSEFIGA
Measured IC50 values are reported for all entries that follow.
Please respond with the number in µM and leave the unit unwritten.

Examples with answers:
- smilesStructure: "C=CC(=O)N1CCC(Oc2nc(Nc3ccc(N4CCN(C)CC4)cc3OC)nc3ccsc23)CC1"
  assayTarget: "Epidermal growth factor receptor (Homo sapiens)"
  IC50 [µM]: 0.247
- smilesStructure: "C=CC(=O)N1CCC(Oc2nc(Nc3cnn(C)c3)nc3ccsc23)CC1"
  assayTarget: "Epidermal growth factor receptor (Homo sapiens)"
  IC50 [µM]: 0.196
- smilesStructure: "C=CC(=O)N1CCC(Oc2nc(Nc3ccc(N4CCOCC4)cc3OC)nc3ccsc23)CC1"
  assayTarget: "Epidermal growth factor receptor (Homo sapiens)"
  IC50 [µM]: 0.246
- smilesStructure: "C=CC(=O)N1CCC(Oc2nc(Nc3ccc(N4CCOCC4)cc3)nc3ccsc23)CC1"
  assayTarget: "Epidermal growth factor receptor (Homo sapiens)"
  IC50 [µM]: 0.197
- smilesStructure: "C=CC(=O)N1CCC(Oc2nc(Nc3ccc(N4CCN(C)CC4)cc3)nc3ccsc23)CC1"
  assayTarget: "Epidermal growth factor receptor (Homo sapiens)"
  IC50 [µM]: 0.359

Now for a further compound.
Recall the recorded IC50 for C=CC(=O)N1CCC(Oc2nc(Nc3ccn(C)n3)nc3ccsc23)CC1 with Epidermal growth factor receptor (Homo sapiens) and state it.
0.224

###

tested on: ASPC1; experiment: Antiproliferative activity against human ASPC1 cells harboring KRAS G12D mutant assessed as reduction in cell growth incubated for 72 hrs by MTT assay; assay type: functional, cell-based; conditions: ASPC1, 72 h
Rule for this label: 1 means IC50 is less than 3 µM; -1 means IC50 is at least 3 µM.

Completed entries (count: 3):
- smilesStructure: "C=CC(=O)N1CCC(Oc2nc(Nc3ccc(N4CCN(C)CC4)c(F)c3)ncc2Cl)CC1"
  discreteLabel: -1
- smilesStructure: "C=CC(=O)N1CCC(Oc2nc(Nc3ccc(N4CCN(C)CC4)cc3)nc3[nH]ccc23)CC1"
  discreteLabel: 1
- smilesStructure: "C=CC(=O)N1CCC(Oc2nc(Nc3ccc(N4CCN(C)CC4)cc3)nc3ccsc23)CC1"
  discreteLabel: -1

In plain terms, does C=CC(=O)N1CCC(Oc2nc(Nc3ccc(N4CCOCC4)cc3)nc3ccsc23)CC1 come in under 3 µM for IC50?
1

Proceed to C=CC(=O)N1CCC(Oc2nc(Nc3ccc(N4CCN(C(C)=O)CC4)cc3OC)nc3[nH]ccc23)CC1
-1

###

assay: Cytotoxicity against human HBE cells assessed as reduction in cell viability incubated for 72 hrs by MTT assay; type: toxicity, cell-based, Epithelial cell
endpointLabel: IC50 at 72 h (µM)
Give the value, in units of µM, as a plain number.

- smilesStructure: "C=CC(=O)N1CCC(Oc2nc(Nc3ccc(N4CCN(C(C)=O)CC4)cc3OC)nc3[nH]ccc23)CC1"
  unitDescriptor: "µM"
  numericReadout: 12.9
- smilesStructure: "C=CC(=O)N1CCC(Oc2nc(Nc3ccc(N4CCN(C)CC4)c(F)c3)nc3ccsc23)CC1"
  unitDescriptor: "µM"
  numericReadout: 4.05
- smilesStructure: "C=CC(=O)N1CCC(Oc2nc(Nc3ccc(N4CCN(C(C)=O)CC4)cc3OC)nc3ccsc23)CC1"
  unitDescriptor: "µM"
  numericReadout: 18.9
- smilesStructure: "C=CC(=O)N1CCC(Oc2nc(Nc3ccc(N4CCN(C)CC4)c(F)c3)nc3[nH]ccc23)CC1"
  unitDescriptor: "µM"
  numericReadout: 3.02
- smilesStructure: "C=CC(=O)N1CCC(Oc2nc(Nc3ccc(N4CCN(C)CC4)cc3)ncc2Cl)CC1"
  unitDescriptor: "µM"
  numericReadout: 15
- smilesStructure: "C=CC(=O)N1CCC(Oc2nc(Nc3ccc(N4CCN(C)CC4)cc3)nc3[nH]ccc23)CC1"
  unitDescriptor: "µM"
  numericReadout: 7.94
- smilesStructure: "C=CC(=O)N1CCC(Oc2nc(Nc3ccc(CN4CCC(CO)CC4)cc3)ncc2Cl)CC1"
  unitDescriptor: "µM"
  numericReadout: 5.86
- smilesStructure: "C=CC(=O)N1CCC(Oc2nc(Nc3ccc(N4CCN(CCO)CC4)cc3)ncc2Cl)CC1"
  unitDescriptor: "µM"
  numericReadout: 16.1

Consider the record given below.
Query (compound): C=CC(=O)N1CCC(Oc2nc(Nc3ccc(N4CCN(C)CC4)c(F)c3)ncc2Cl)CC1 ; field requested: IC50 at 72 h
8.91

###

Measured IC50 at 72 h by item
experiment: Cytotoxicity against human A-431 cells harboring wild type EGFR assessed as reduction in cell viability incubated for 72 hrs by MTT assay; format: toxicity, cell-based
Give your result in µM as a bare value.

Below, 5 compounds whose answers are already recorded.
- compound: "C=CC(=O)N1CCC(Oc2nc(Nc3ccc(N4CCOCC4)cc3OC)nc3ccsc23)CC1"
  numericReadout: 15.2
- compound: "C=CC(=O)Nc1cc(Nc2nccc(-c3cn(C)c4ccccc34)n2)c(OC)cc1N(C)CCN(C)C [OSIMERTINIB]"
  numericReadout: 1.32
- compound: "C=CC(=O)N1CCC(Oc2nc(Nc3cnn(C)c3)nc3ccsc23)CC1"
  numericReadout: 4.77
- compound: "C=CC(=O)N1CCC(Oc2nc(Nc3ccc(N4CCN(C)CC4)cc3OC)nc3ccsc23)CC1"
  numericReadout: 2.07
- compound: "C=CC(=O)N1CCC(Oc2nc(Nc3ccc(N4CCN(C)CC4)cc3OC)nc3[nH]ccc23)CC1"
  numericReadout: 2.71

Next up:
Value lookup for IC50 at 72 h; key = C=CC(=O)N1CCC(Oc2nc(Nc3cnn(C)c3)nc3[nH]ccc23)CC1
3.99

###

experiment: Cytotoxicity against human HBE cells assessed as reduction in cell viability incubated for 72 hrs by MTT assay; type: toxicity, cell-based, Epithelial cell
endpointLabel: IC50 at 72 h (µM)
Form entry: value (µM) — number only.

Past entries and their recorded results:
- smilesStructure: "C=CC(=O)N1CCC(Oc2nc(Nc3ccc(N4CCN(C)CC4)cc3OC)nc3ccsc23)CC1"
  endpointLabel: "IC50 at 72 h"
  numericReadout: 18.6
- smilesStructure: "C=CC(=O)N1CCC(Oc2nc(Nc3ccc(N4CCOCC4)cc3)nc3ccsc23)CC1"
  endpointLabel: "IC50 at 72 h"
  numericReadout: 16.7

Reported IC50 at 72 h for C=CC(=O)N1CCC(Oc2nc(Nc3ccc(N4CCN(C)CC4)cc3)nc3ccsc23)CC1 : what is it?
9.05
